# Test system: HEK-293T
# methodNotes: Incucyte cell viability with HEK293T; further: unitless GR value; below 1 slowed growth and below 0 cell loss
# Assay type: toxicity, cell-based
# measurementParameters: human, 24 h, 10 µM, compound concentration 10 uM, replicate number 1
quantityKind: Growth Rate
Please state the value as a number alone, without comment.

Solved cases (4 shown):
smilesInput	Growth Rate
CCc1ccc(-c2ncn(CC3(F)CCN(C)CC3)c2-c2ccnc3[nH]ccc23)nc1	0.9
CCN(CC)CCO[C@H]1CC[C@@]2(C)C(=CC[C@@H]3[C@@H]2CC[C@]2(C)C(=O)CC[C@@H]32)C1.Cl	0.53
C[C@@H](CN1CC[C@@]2(C)c3cccc(O)c3C[C@@H]1C2(C)C)OCc1ccccc1.Cl	0.8
CNC(=O)c1c[nH]c2ccc(Nc3nccc(-c4ccccn4)n3)cc12	0.39

// next entry
Looking up Cc1cc(C)nc(Nc2ncc(C(=O)NCCc3c(C)[nH]c4ccccc34)cn2)c1.Cl , I found its Growth Rate recorded as 0.99

###

Collected Growth Rate values appear next to each entry.
# Tested on: HEK-293T
# methodNotes: Incucyte cell viability with HEK293T; further: unitless GR value; below 1 slowed growth and below 0 cell loss
# Assay type: toxicity, cell-based
# measurementParameters: human, 12 h, 10 µM, compound concentration 10 uM, replicate number 2
Please state the value as a number alone, without comment.

Solved cases (3 shown):
smilesInput	Growth Rate
Fc1ccc(-c2nc(-c3c(F)cccc3F)[nH]c2-c2ccncc2)cc1	0.5
CC(C)(C)c1ccc2c(c1)CC[C@H]2NC(=O)Nc1cccc2[nH]ncc12	0.71
O=C(CCCN1CCC(O)(c2ccc(Cl)cc2)CC1)c1ccc(F)cc1	0.63

Let me check: CCNC1=N[C@@H]2[C@@H](O)[C@H](O)[C@@H](CO)O[C@@H]2S1 , system HEK-293T, measured Growth Rate is 0.93

Let me check: COc1ccc(-n2nc3c4ccccc4[nH]cc-3c2=O)cc1 , system HEK-293T, measured Growth Rate is 1

###

# Test system: U2OS
# methodNotes: Incucyte cell viability with U2OS; further: unitless GR value; below 1 slowed growth and below 0 cell loss
# Format: toxicity, cell-based
# measurementParameters: human, 12 h, 10 µM, compound concentration 10 uM, replicate number 1
Collected Growth Rate values appear next to each entry.
Please state the value as a number alone, without comment.

Solved cases (5 shown):
compound	Growth Rate
CCn1cnc2c(-c3ccc(F)c(-c4ccc(S(=O)(=O)CC)cc4OC)c3)cnnc21	-0.49
Cc1[nH]nc(C(F)(F)F)c1Cc1sc2c(c1C(=O)N1C[C@](C)(O)CO1)c(=O)n(C)c(=O)n2C(C)C	0.92
Nc1ccc(S(=O)(=O)Nc2ccnn2-c2ccccc2)cc1	0.83
O=C(Nc1ccccc1Cl)c1cnc2ccc(C3CCNCC3)cn12.O=C(O)C(=O)O	0.46
NC(=O)c1ccc(-c2nc(-c3ccc4c(c3)OCO4)c(-c3ccccn3)[nH]2)cc1.O	0.79

Looking up CS(C)(=O)=Nc1ccc(-c2ccc(-c3nc4[nH]c(O[C@@H]5CO[C@H]6[C@@H]5OC[C@H]6O)nc4cc3Cl)cc2)cc1 , I found its Growth Rate recorded as 0.65

Looking up CCCCCCCN(CCc1ccc(SC(C)(C)C(=O)O)cc1)C(=O)Nc1ccc(F)cc1F , I found its Growth Rate recorded as 0.86

###

# Test system: HEK-293T
# methodNotes: Incucyte cell viability with HEK293T; further: unitless GR value; below 1 slowed growth and below 0 cell loss
# Assay type: toxicity, cell-based
# measurementParameters: human, 0 h, 10 µM, compound concentration 10 uM, replicate number 1
Collected Growth Rate values appear next to each entry.
Please state the value as a number alone, without comment.

Solved cases (3 shown):
smilesInput	measuredTarget	Growth Rate
Nc1ccc(-c2cnc(N)c(-c3ccc(Cl)cc3)c2)cn1	HEK-293T	-0.26
Cc1[nH]nc(C(F)(F)F)c1Cc1sc2c(c1C(=O)N1C[C@](C)(O)CO1)c(=O)n(C)c(=O)n2C(C)C	HEK-293T	-0.63
Nc1c(CC(=O)O)cccc1C(=O)c1ccc(Br)cc1	HEK-293T	0.43

Looking up CC(=O)c1c(C)c2cnc(Nc3ccn(C)n3)nc2n(C2CCCC2)c1=O , I found its Growth Rate recorded as 0.51

Looking up N=C(N)NCCC[C@H](NC(=O)C(c1ccccc1)c1ccccc1)C(=O)NCc1ccc(CNC(N)=O)cc1.O=C(O)C(F)(F)F , I found its Growth Rate recorded as 0.26

###

# System: U2OS
# methodNotes: Incucyte cell viability with U2OS; further: unitless GR value; below 1 slowed growth and below 0 cell loss
# Type: toxicity, cell-based
# measurementParameters: human, 18 h, 10 µM, compound concentration 10 uM, replicate number 2
quantityKind: Growth Rate

Solved cases (8 shown):
compound	Growth Rate
Cc1cc(C2CCCNC2)ccc1Nc1ncc(Br)c(NCc2cccc3c2C(C)(C)C(=O)N3)n1 (centres undefined)	0.46
Cc1cc(-c2nncc3c(C(C)(C)C)c(OCc4ncnn4C)nn23)no1	0.71
COC(=O)c1cc2c(cn1)[nH]c1ccccc12	1
C#Cc1cnc2[nH]cc(-c3cccc4c3CCN4C(=O)[C@@H]3CCCN3C#N)c2c1	-0.52
Oc1cc2c(cc1O)CN(C(=S)NCCc1ccc(Cl)cc1)CCC2 [CAPSAZEPINE]	0.75
c1cnc2cc3c(cc2n1)[C@@H]1CNC[C@H]3C1	1
Cc1cc(CN)cc(C)c1-c1ncn(C)c1-c1cncn1C.Cl	0.99
Cc1c(C(=O)Nc2cccc(C(F)(F)F)c2)cc(-c2ccccc2)n1CCCN1CCOCC1.Cl	0.88

// next entry
Let me check: Cc1c(N2CCCC2)nc2ccc(Br)cc2c1C(=O)NC[C@H](CCC(=O)O)c1ccccc1Cl , system U2OS, measured Growth Rate is 0.9

###

Collected Growth Rate values appear next to each entry.
# Tested on: HEK-293T
# methodNotes: Incucyte cell viability with HEK293T; further: unitless GR value; below 1 slowed growth and below 0 cell loss
# Type: toxicity, cell-based
# measurementParameters: human, 0 h, 10 µM, compound concentration 10 uM, replicate number 1

Solved cases (5 shown):
smilesInput	result
CN(C)c1ncc2cc(-c3ccc(-c4ncccc4F)cc3Cl)c(=O)n(C[C@H]3OC[C@H](N)CO3)c2n1	-1
Cc1c[nH]c(-c2cnc(NCCNc3ccc(C#N)cn3)nc2-c2ccc(Cl)cc2Cl)n1	0.82
CN[C@@H](C)C(=O)N[C@H](C(=O)N1CCC[C@H]1C(=O)Nc1snnc1-c1ccccc1)C1CCCCC1	0.81
N#CC[C@H](C1CCCC1)n1cc(-c2ncnc3[nH]ccc23)cn1	-0.91
Cc1ncsc1-c1ccc(CNC(=O)[C@@H]2C[C@@H](O)CN2C(=O)[C@@H](NC(=O)CCCCNC(=O)c2ccc(-c3ccc(N4CCN(C)CC4)c(NC(=O)c4c[nH]c(=O)cc4C(F)(F)F)c3)cc2)C(C)(C)C)cc1	-0.12

Looking up Cc1n[nH]c2ncc(C(=O)N3CCC[C@H]3c3ccc(Cl)cc3)cc12 , I found its Growth Rate recorded as 0.29

Looking up N=C(N)NCCC[C@H](NC(=O)CC1(CC(=O)N2CCN(C(c3ccccc3)c3ccccc3)CC2)CCCC1)C(=O)NCc1ccccc1.O=C(O)C(F)(F)F.O=C(O)C(F)(F)F , I found its Growth Rate recorded as 0.71

###

Collected Growth Rate values appear next to each entry.
# Test system: Fibroblast
# methodNotes: Incucyte cell viability with human fibroblast; further: unitless GR value; below 1 slowed growth and below 0 cell loss
# Type: toxicity, cell-based
# measurementParameters: 18 h, 10 µM, compound concentration 10 uM, replicate number 2

Solved cases (2 shown):
smilesInput	measuredTarget	quantityKind	result
COc1cc(C(=O)N2CC[C@@H](O)[C@@H](N)C2)cc2nc(-c3cc4ccccc4n3CC3CC3)n(C)c12.Cl	Fibroblast	Growth Rate	0.2
Cc1nccn1-c1ccc(Sc2cccc(C3(C(N)=O)CCOCC3)c2)cc1	Fibroblast	Growth Rate	0.72

Looking up CCC(=O)Nc1cc(Nc2cc(NC3CC3)n3ncc(C#N)c3n2)ccc1C , I found its Growth Rate recorded as 0.61

Looking up C=C(F)C(=O)N1CCN(c2nc(OC[C@@H]3CCCN3C)nc3c2CCN(c2cccc4cccc(Cl)c24)C3)C[C@@H]1CC#N , I found its Growth Rate recorded as -0.27

###

Collected Growth Rate values appear next to each entry.
# Tested on: U2OS
# methodNotes: Incucyte cell viability with U2OS; further: unitless GR value; below 1 slowed growth and below 0 cell loss
# Assay type: toxicity, cell-based
# measurementParameters: human, 12 h, 10 µM, compound concentration 10 uM, replicate number 1
Please state the value as a number alone, without comment.

Solved cases (5 shown):
molecule	quantitativeReadout
Cn1cc(-c2ccc(N(C(=O)NCc3ccccc3)[C@H]3CC[C@H](Nc4ccc(C#N)cn4)CC3)cc2)ccc1=O	0.28
CC(=O)Nc1nc(C)c(S(=O)(=O)Nc2ccc(C(O)(C(F)(F)F)C(F)(F)F)cc2)s1	0.61
COc1cc(C(=O)O)ncc1C#Cc1ccccc1NS(=O)(=O)c1cccc2c(N(C)C)ccnc12	0.92
CC1(C)CC(CN2CCC(F)(CNC(=O)c3cc(Cl)cc(Cl)c3)CC2)CCO1 (configuration not stated)	0.85
COc1cccc(CNc2ccc(S(=O)(=O)Nc3nc4ccccc4s3)cc2)c1O	0.89

Looking up COc1cc(N(C)c2ccnc3ccc(C(F)(F)F)cc23)cc(OC)c1OC , I found its Growth Rate recorded as 0.9

Looking up COc1nc2ccc([C@@](O)(c3ccccc3)C3CCN(C(C)=O)CC3)cc2c(Cl)c1Cc1ccc(-n2cccn2)cc1 , I found its Growth Rate recorded as 0.93

Looking up Cc1ccc(C(=O)Nc2cc(N3CCN(C)CC3)cc(C(F)(F)F)c2)cc1-n1cc(-c2cnn(C)c2C)nn1.Cl , I found its Growth Rate recorded as 0.71

Looking up COc1ccc(N(C(=O)Nc2c(C)cccc2C)c2cc(Nc3ccc(N4CCN(C)CC4)cc3)ncn2)c(OC)c1 , I found its Growth Rate recorded as 0.77

Looking up Cl.Cl.O=[N+]([O-])c1ccc(CN2CCOCCOCCN(Cc3ccc([N+](=O)[O-])cc3)CCOCC2)cc1 , I found its Growth Rate recorded as 0.28

Looking up CN(C(=O)CCOCCOCCOCCOCCNc1cccc2c1C(=O)N(C1CCC(=O)NC1=O)C2=O)[C@H]1CC[C@@]2(C)[C@@H](CC[C@@H]3[C@@H]2CC[C@]2(C)[C@@H](c4ccc5ccncc5c4)CC[C@@H]32)C1 (some centres not stated) , I found its Growth Rate recorded as 0.79
